Reference source for all entries: patent US20170240511A1

# TEST SYSTEM: Human HIF-PHD2 (Homo sapiens, UniProt Q9GZT9)
# Sequence (Q9GZT9 whole entry): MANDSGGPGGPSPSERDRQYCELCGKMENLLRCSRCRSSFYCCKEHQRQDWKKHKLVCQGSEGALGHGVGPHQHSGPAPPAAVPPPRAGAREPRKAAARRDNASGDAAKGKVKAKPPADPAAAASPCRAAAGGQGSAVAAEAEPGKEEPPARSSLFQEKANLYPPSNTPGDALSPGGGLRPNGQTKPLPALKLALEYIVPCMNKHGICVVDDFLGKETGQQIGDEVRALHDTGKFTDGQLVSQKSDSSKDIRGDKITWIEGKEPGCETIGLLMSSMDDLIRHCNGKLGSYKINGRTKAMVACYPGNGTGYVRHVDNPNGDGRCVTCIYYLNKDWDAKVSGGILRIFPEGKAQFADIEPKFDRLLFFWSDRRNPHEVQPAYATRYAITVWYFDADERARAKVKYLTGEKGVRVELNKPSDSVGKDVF
METRIC: IC50 (nM)
# number only, unit nM dropped from output

CCOC(=O)[C@@H]1C[C@H]1NC(=O)c1cc(O)c(C(=O)NC(c2ccccc2)c2ccccc2)cn1	37.3
O=C(O)c1cnn(-c2cc(O)c(C(=O)NC(c3ccccc3)c3ccccc3)cn2)c1	0.875
CCOC(=O)C(C)(C)CNC(=O)c1cc(O)c(C(=O)NC(c2ccccc2)c2ccccc2)cn1	276

Let us examine a further case.
// lookup IC50 for CCOC(=O)CCNC(=O)c1cc(O)c(C(=O)NC(c2ccccc2)c2ccccc2)cn1 92.9

----------
# TEST SYSTEM: Human HIF-PHD2 (Homo sapiens)
METRIC: pIC50
The scale used: pIC50 is minus the common logarithm of the concentration in molar units.

Worked set:
O=C(NCC(O)C(=O)O)c1cc(O)c(C(=O)NC(c2ccccc2)c2ccccc2)cn1 (stereo not drawn) [Example 13]	8.89
CCOC(=O)[C@H]1C[C@@H]1NC(=O)c1cc(O)c(C(=O)NC(c2ccccc2)c2ccccc2)cn1 [Example 6]	7.05
O=C(O)CCCNC(=O)c1cc(O)c(C(=O)NC(c2ccccc2)c2ccccc2)cn1 [Example 12]	8.99
O=C(N[C@H]1C[C@H](C(=O)O)C1)c1cc(O)c(C(=O)NC(c2ccccc2)c2ccccc2)cn1 [Example 3]	8.79

What reported pIC50 corresponds to O=C(NC12CC(C(=O)O)(C1)C2)c1cc(O)c(C(=O)NC(c2ccccc2)c2ccccc2)cn1 [Example 17] on Human HIF-PHD2 (Homo sapiens)? 7.63

Recall the recorded pIC50 for O=C(N[C@@H]1C[C@H]1C(=O)O)c1cc(O)c(C(=O)NC(c2ccccc2)c2ccccc2)cn1 [Example 16] with Human HIF-PHD2 (Homo sapiens) and state it. 8.18
